From: the RNAGym collection of RNA variant scans (doi:10.1021/acssynbio.7b00057)

B1: Pistol ribozyme (parent)
chain: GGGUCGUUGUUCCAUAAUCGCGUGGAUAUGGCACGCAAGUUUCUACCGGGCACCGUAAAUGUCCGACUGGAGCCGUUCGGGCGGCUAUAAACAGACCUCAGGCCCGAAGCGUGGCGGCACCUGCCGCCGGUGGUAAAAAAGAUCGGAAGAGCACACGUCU

- Variants of: B1
- procedure.text: aptazyme ON/OFF ratio, guanine; higher = stronger switching; co-transcriptional cleavage with and without guanine
Known aptazyme ON/OFF ratio of a selection of variants
Please respond with just the number, no unit label.

For orientation, consider the following solved cases.
mutation.label | aptazyme ON/OFF ratio
U8G G9C U10A U11A C12A | 1.18
U7G U8A G9C U10A U11G C12U | 1.03
U7A U10A C12A | 1.31
U7C U8C G9C U10C C12U C13A | 1.1
U7G G9C U11A C12G C13A | 1.2

Query: Name the recorded aptazyme ON/OFF ratio for U7A U8G G9A U10G U11C C13U .
Result: 1.06

Query: I am curious: what aptazyme ON/OFF ratio value has been reported for U7C U8A U10C C12A ?
Result: 1.41
